meta.source: patent US9783556B2

Tested on: PBMCs
Assay: LPS-induced TNFα/IL-8 release in PBMC cells
Type: cell-based
Details: Homo sapiens, LPS-stimulated PBMCs, TNFα, read-out: IC50 Values for Inhibition of Cytokine Release PBMCs TNFα
pIC50: −log10 of the molar value.
Measured Parameter: pIC50

- Structure Smiles String: "Cc1ccc(-n2nc([Si](C)(C)C)cc2NC(=O)Nc2ccc(Oc3ccnc(Nc4cccc(OCCN5CCOCC5)c4)n3)c3ccccc23)cc1"
  Target: "PBMCs"
  Measured Parameter: "pIC50"
  Measured Value: 9.15
- Structure Smiles String: "Cc1ccc(-n2nc([Si](C)(C)C)cc2NC(=O)Nc2ccc(Oc3ccnc(Nc4ccccc4)n3)c3ccccc23)cc1"
  Target: "PBMCs"
  Measured Parameter: "pIC50"
  Measured Value: 8.55
- Structure Smiles String: "COc1ccc(-n2nc([Si](C)(C)C)cc2NC(=O)Nc2ccc(Oc3ccnc(Nc4ccccc4)n3)c3ccccc23)cn1"
  Target: "PBMCs"
  Measured Parameter: "pIC50"
  Measured Value: 8.57
- Structure Smiles String: "Cc1ccc(-n2nc([Si](C)(C)C)cc2NC(=O)Nc2ccc(Oc3ccnc(Nc4ccc5[nH]ncc5c4)n3)c3ccccc23)cc1"
  Target: "PBMCs"
  Measured Parameter: "pIC50"
  Measured Value: 8.48
